Molecular target: GCD (recombinant gelatinase A catalytic domain)
Experiment: Inhibition of recombinant gelatinase A catalytic domain (GCD), thiopeptolide substrate
Assay type: biochemical
Settings: thiopeptolide substrate Ac-Pro-Leu-Gly-thioester-Leu-Leu-Gly-OEt
assay.endpoint: log10 IC50 (log10 of the value in µM)
Field: value | Transform: log10 | Quantity: IC50 | Unit: µM

[[record]]
molecule = "O=C(O)[C@H](Cc1ccccc1)NS(=O)(=O)c1ccc(N2CCC(c3ccccc3)CC2)cc1"
assay_endpoint = "log10 IC50"
value = -0.66

[[record]]
molecule = "CC(C)C[C@H](NS(=O)(=O)c1ccc(N2CCC(c3ccccc3)CC2)cc1)C(=O)O"
assay_endpoint = "log10 IC50"
value = -1.08

[[record]]
molecule = "O=C(O)CNS(=O)(=O)c1ccc(N2CCN(c3ccccc3)CC2)cc1"
assay_endpoint = "log10 IC50"
value = -0.30

[[record]]
molecule = "O=C(CNS(=O)(=O)c1ccc(N2CCC(c3ccccc3)CC2)cc1)NO"
assay_endpoint = "log10 IC50"
value = -0.09

[[record]]
molecule = "O=C(O)CNS(=O)(=O)c1ccc(N2CCC(c3ccccc3)CC2)cc1"
assay_endpoint = "log10 IC50"
value = -0.68

[[record]]
molecule = "O=C(O)C(CCCc1ccccc1)NS(=O)(=O)c1ccc(N2CCC(c3ccccc3)CC2)cc1 (racemic)"
assay_endpoint = "log10 IC50"
value = -0.40

[[record]]
molecule = "COc1cccc(N2CCN(c3ccc(S(=O)(=O)N[C@@H](Cc4ccccc4)C(=O)O)cc3)CC2)c1"
assay_endpoint = "log10 IC50"
value = -0.48

[[record]]
molecule = "O=C(O)[C@H](Cc1c[nH]c2ccccc12)NS(=O)(=O)c1ccc(N2CCC(c3ccccc3)CC2)cc1"
assay_endpoint = "log10 IC50"
value = -0.49


Provide each entry's log10 IC50 from the list below.
1. O=C(O)[C@@H](Cc1ccccc1)NS(=O)(=O)c1ccc(N2CCC(c3ccccc3)CC2)cc1
2. COc1ccc(N2CCN(c3ccc(S(=O)(=O)N[C@@H](Cc4ccccc4)C(=O)O)cc3)CC2)cc1

[-0.92, -1.48]

====

Target: GCD (recombinant gelatinase A catalytic domain)
Assay: Inhibition of recombinant gelatinase A catalytic domain (GCD), thiopeptolide substrate
Format: biochemical
Details: thiopeptolide substrate Ac-Pro-Leu-Gly-thioester-Leu-Leu-Gly-OEt
Counter-ions that a name gives are not always drawn.
What IC50 was measured for each of the following?
Answers are plain numbers, in µM.

[[record]]
molecule = "O=C(O)[C@H](Cc1ccccc1)NS(=O)(=O)c1ccc(N2CCC(Cc3ccccc3)CC2)cc1"
assay_endpoint = "IC50"
unit_string = "µM"
value = 3.2


Please report IC50 for every entry that follows.
1. O=C(O)[C@H](Cc1ccccc1)NS(=O)(=O)c1ccc(N2CCN(c3ccccc3)CC2)cc1
2. CC(C)CN(CC(=O)O)S(=O)(=O)c1ccc(N2CCC(c3ccccc3)CC2)cc1
3. O=C(O)CCNS(=O)(=O)c1ccc(N2CCC(c3ccccc3)CC2)cc1
4. O=C(O)[C@H](Cc1ccccc1)NS(=O)(=O)c1ccc(N2CCN(c3cccc(O)c3)CC2)cc1 [Example 17, hydrobromide]
5. O=C(O)[C@H](Cc1ccc(O)cc1)NS(=O)(=O)c1ccc(N2CCC(c3ccccc3)CC2)cc1

[0.088, 3.3, 4.8, 0.18, 0.13]

// each molecule listed below needs its IC50
1. CC(C)C[C@@H](NS(=O)(=O)c1ccc(N2CCC(c3ccccc3)CC2)cc1)C(=O)O
2. O=C(O)[C@H](Cc1ccc(OCc2ccccc2)cc1)NS(=O)(=O)c1ccc(N2CCC(c3ccccc3)CC2)cc1

1. 0.93
2. 5.3
